# System: Phakopsora pachyrhizi
# Assay Comment: Asian Soybean Rust fungicidal activity (PHAKPA)
# Condition Notes: Phakopsora pachyrhizi, in Glycine max, 72 h, read-out: PHAKPA 3DC % Control rating, soybean, high volume, 25 ppm, 3 Day Curative
Assay Endpoint: pest or weed control at 25 ppm

INSERT INTO assay_data (structure_string, target_or_system, experimental_result) VALUES
  ('COc1ccnc(C(=O)N[C@@H](C)C(=O)O[C@@H](C)[C@H](Oc2cccc(F)c2)c2ccccc2)c1OCOC(C)=O', 'Phakopsora pachyrhizi', '< 80%'),
  ('COc1ccnc(C(=O)N[C@@H](C)C(=O)O[C@@H](C)[C@H](OCC2CC2)c2ccccc2)c1OCOC(C)=O', 'Phakopsora pachyrhizi', '< 80%'),
  ('COc1ccnc(C(=O)N[C@@H](C)C(=O)O[C@@H](C)[C@H](Oc2ccccc2)c2ccc(F)cc2F)c1OCOC(C)=O', 'Phakopsora pachyrhizi', '< 80%'),
  ('COc1ccnc(C(=O)N[C@@H](C)C(=O)O[C@@H](C)[C@@H](OC)c2ccccc2)c1OCOC(C)=O', 'Phakopsora pachyrhizi', '< 80%'),
  ('COc1cc(C)ccc1[C@@H](Oc1ccc(C)cc1)[C@H](C)OC(=O)[C@H](C)NC(=O)c1nccc(OC)c1OC(C)=O', 'Phakopsora pachyrhizi', '< 0%'),
  ('COc1ccnc(C(=O)N[C@@H](C)C(=O)O[C@@H](C)[C@H](OCC(C)C)c2ccccc2)c1OC(C)=O', 'Phakopsora pachyrhizi', '< 80%'),
  ('COc1ccnc(C(=O)N[C@@H](C)C(=O)O[C@@H](C)[C@H](Oc2ccccc2)c2ccc(F)cc2)c1OCOC(C)=O', 'Phakopsora pachyrhizi', '< 0%');

====

# Tested on: Puccinia triticina
# Assay Comment: Wheat Brown Rust fungicidal activity (PUCCRT)
# Type: in vivo
# Condition Notes: 24 h, Low Volume Cereal Activity at 121.5 g/Ha, 1 Day Protectant, read-out: PUCCRT 1DP (Wheat Brown Rust, 1 Day Protectant)
# maps each entry to its pest or weed control at 121.5 g/ha
Assay Endpoint: pest or weed control at 121.5 g/ha

INSERT INTO measurements (compound, target_or_system, experimental_result) VALUES
  ('COc1ccnc(C(=O)N[C@H](C)C(=O)O[C@H](C)[C@@H](Oc2ccccc2)c2ccccc2)c1OCOC(C)=O', 'Puccinia triticina', '< 0%'),
  ('COc1cc(F)ccc1[C@H](OC1CC1)[C@H](C)OC(=O)[C@H](C)NC(=O)c1nccc(OC)c1OC(C)=O', 'Puccinia triticina', '< 80%'),
  ('COc1ccnc(C(=O)N[C@@H](C)C(=O)O[C@@H](C)C(Oc2ccccc2)c2nccs2)c1OC(C)=O (stereo partly shown)', 'Puccinia triticina', '< 80%'),
  ('COc1ccnc(C(=O)N[C@@H](C)C(=O)O[C@@H](C)C(Oc2ccc(F)cc2)c2ccc(F)cc2)c1OCOC(C)=O (stereo partly shown)', 'Puccinia triticina', '> 80%'),
  ('COc1ccnc(C(=O)N[C@@H](C)C(=O)O[C@@H](C)[C@H](Oc2ccc(C(F)(F)F)cc2)c2ccccc2)c1OC(C)=O', 'Puccinia triticina', '> 80%'),
  ('COc1cc(F)ccc1[C@@H](OCC(F)F)[C@H](C)OC(=O)[C@H](C)NC(=O)c1nccc(OC)c1OC(C)=O', 'Puccinia triticina', '< 80%'),
  ('COc1ccnc(C(=O)N[C@@H](C)C(=O)O[C@@H](C)[C@H](Oc2ccc(F)cc2)c2ccccc2)c1OCOC(C)=O', 'Puccinia triticina', '> 80%');

====

# Test system: Zymoseptoria tritici
# Assay Comment: Leaf Blotch of Wheat fungicidal activity (SEPTTR)
# Format: in vivo
# Condition Notes: 72 h, Low Volume Cereal Activity at 121.5 g/Ha, 3 Day Curative, read-out: SEPTTR 3DC (Wheat Leaf Blotch, 3 Day Curative)
# maps each entry to its pest or weed control at 121.5 g/ha
Assay Endpoint: pest or weed control at 121.5 g/ha

INSERT INTO assay_data (compound, target_or_system, experimental_result) VALUES
  ('COc1ccnc(C(=O)N[C@@H](C)C(=O)O[C@@H](C)C(Oc2ccc(F)cc2)c2ccc(F)cc2)c1OCOC(C)=O (stereo partly drawn)', 'Zymoseptoria tritici', '> 80%'),
  ('COc1ccnc(C(=O)N[C@@H](C)C(=O)O[C@@H](C)[C@H](Oc2cc(F)cc(Cl)c2)c2ccccc2)c1OC(C)=O', 'Zymoseptoria tritici', '> 80%'),
  ('COc1ccnc(C(=O)N[C@@H](C)C(=O)O[C@@H](C)C(Oc2ccccc2)c2nccs2)c1OCOC(C)=O (stereo partly drawn)', 'Zymoseptoria tritici', '< 80%'),
  ('COc1ccnc(C(=O)N[C@@H](C)C(=O)O[C@@H](C)[C@H](Oc2cccc(F)c2)c2cccc(-c3ccccc3)c2)c1OC(C)=O', 'Zymoseptoria tritici', '> 80%'),
  ('COc1ccnc(C(=O)N[C@@H](C)C(=O)O[C@@H](C)[C@H](Oc2ccccc2Cl)c2ccccc2)c1OCOC(C)=O', 'Zymoseptoria tritici', '> 80%'),
  ('COc1ccnc(C(=O)N[C@H](C(=O)O[C@@H](C)[C@H](Oc2ccc(C(F)(F)F)cc2)c2ccccc2)C(C)C)c1OCOC(C)=O', 'Zymoseptoria tritici', '< 0%');

====

# Test system: Zymoseptoria tritici
# Assay Comment: Leaf Blotch of Wheat fungicidal activity (SEPTTR)
# Assay type: in vivo
# Condition Notes: 72 h, Low Volume Cereal Activity at 121.5 g/Ha, 3 Day Curative, read-out: SEPTTR 3DC (Wheat Leaf Blotch, 3 Day Curative)
# maps each entry to its pest or weed control at 121.5 g/ha
Assay Endpoint: pest or weed control at 121.5 g/ha

INSERT INTO results (compound, assay_endpoint, experimental_result) VALUES
  ('COc1ccnc(C(=O)N[C@@H](C)C(=O)O[C@@H](C)[C@H](Oc2ccc(C)cc2)c2ccc(F)cc2)c1OC(C)=O [Example 247]', 'pest or weed control at 121.5 g/ha', '> 80%'),
  ('COc1ccnc(C(=O)N[C@@H](Cc2ccccc2)C(=O)O[C@@H](C)[C@H](Oc2cccc(F)c2)c2ccccc2)c1OCOC(C)=O [Example 189]', 'pest or weed control at 121.5 g/ha', '< 0%'),
  ('COc1cc(C)ccc1[C@@H](Oc1ccc(C)cc1)[C@H](C)OC(=O)[C@H](C)NC(=O)c1nccc(OC)c1OC(C)=O [Example 274]', 'pest or weed control at 121.5 g/ha', '> 80%'),
  ('CC[C@H](NC(=O)c1nccc(OC)c1OC(C)=O)C(=O)O[C@@H](C)[C@H](Oc1cc(F)cc(Cl)c1)c1ccccc1 [Example 209]', 'pest or weed control at 121.5 g/ha', '> 80%'),
  ('COc1ccnc(C(=O)N[C@@H](C)C(=O)O[C@@H](C)[C@@H](Oc2ccc(Cl)cc2Cl)c2ccccc2)c1OCOC(C)=O [Example 216]', 'pest or weed control at 121.5 g/ha', '> 80%'),
  ('COc1ccnc(C(=O)N[C@@H](C)C(=O)O[C@@H](C)[C@H](Oc2ccccc2)c2ccc(F)cc2OCC(F)F)c1OC(C)=O [Example 273]', 'pest or weed control at 121.5 g/ha', '> 80%'),
  ('COc1ccnc(C(=O)N[C@@H](C)C(=O)O[C@@H](C)[C@H](Oc2ccccc2Cl)c2ccccc2)c1OC(C)=O [Example 205]', 'pest or weed control at 121.5 g/ha', '> 80%'),
  ('COc1ccnc(C(=O)N[C@@H](C)C(=O)O[C@@H](C)[C@H](Oc2ccc(C)cc2)c2ccc(C)cc2)c1OCOC(C)=O [Example 257]', 'pest or weed control at 121.5 g/ha', '> 80%'),
  ('COc1cc(F)ccc1[C@@H](OC1CC1)[C@H](C)OC(=O)[C@H](C)NC(=O)c1nccc(OC)c1OC(C)=O [Example 299]', 'pest or weed control at 121.5 g/ha', '> 80%'),
  ('COc1ccnc(C(=O)N[C@@H](C)C(=O)O[C@@H](C)[C@H](Oc2ccc(C)cc2)c2ccccc2)c1OCOC(C)=O [Example 248]', 'pest or weed control at 121.5 g/ha', '> 80%'),
  ('COc1ccnc(C(=O)N[C@@H](C)C(=O)O[C@@H](C)[C@H](Oc2ccccc2)c2ccc(F)cc2Oc2ccccc2)c1OC(C)=O [Example 275]', 'pest or weed control at 121.5 g/ha', '< 80%'),
  ('COc1ccnc(C(=O)N[C@@H](C)C(=O)O[C@@H](C)[C@H](Oc2ccc(C)cc2Cl)c2ccccc2)c1OC(C)=O [Example 243]', 'pest or weed control at 121.5 g/ha', '> 80%'),
  ('COc1ccnc(C(=O)N[C@@H](C)C(=O)O[C@@H](C)[C@@H](OC)c2ccccc2)c1OC(C)=O [Example 229]', 'pest or weed control at 121.5 g/ha', '< 80%');
